# assaySystem: T1, human IL-15Rα (human, UniProt Q13261 31-205, limits assumed)
# T1 construct: also called hIL-15Rα; IL-15 receptor alpha
# T1 sequence (Q13261 31-205 limits assumed): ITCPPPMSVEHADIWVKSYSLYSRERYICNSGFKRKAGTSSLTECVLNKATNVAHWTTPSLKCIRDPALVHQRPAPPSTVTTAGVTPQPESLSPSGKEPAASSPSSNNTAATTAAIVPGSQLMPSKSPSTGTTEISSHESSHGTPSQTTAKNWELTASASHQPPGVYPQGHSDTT
# experimentDescription: SPR, steady state
quantityMeasured: Kd (nM)

hIL-15 V49R/N1G (ligand) GWVNVISDLKKIEDLIQSMHIDATLYTESDVHPSCKVTAMKCFLLELQRISLESGDASIHDTVENLIILANNSLSSNGNVTESGCKECEELEEKNIKEFLQSFVHIVQMFINTGGGGSGHHHHHHHHGGGLNDIFEAQKIEWHE
160
hIL-15 V49R/K11Q (ligand) NWVNVISDLKQIEDLIQSMHIDATLYTESDVHPSCKVTAMKCFLLELQRISLESGDASIHDTVENLIILANNSLSSNGNVTESGCKECEELEEKNIKEFLQSFVHIVQMFINTGGGGSGHHHHHHHHGGGLNDIFEAQKIEWHE
156

a = hIL-15 V49R/I68H (ligand) NWVNVISDLKKIEDLIQSMHIDATLYTESDVHPSCKVTAMKCFLLELQRISLESGDASIHDTVENLIHLANNSLSSNGNVTESGCKECEELEEKNIKEFLQSFVHIVQMFINTGGGGSGHHHHHHHHGGGLNDIFEAQKIEWHE
b = hIL-15 V49R/D30K (ligand) NWVNVISDLKKIEDLIQSMHIDATLYTESKVHPSCKVTAMKCFLLELQRISLESGDASIHDTVENLIILANNSLSSNGNVTESGCKECEELEEKNIKEFLQSFVHIVQMFINTGGGGSGHHHHHHHHGGGLNDIFEAQKIEWHE
## Input For this pair, a and b , which shows a numerically higher Kd? Pick one and reply with its label.
## Output b
